Ref: paper PMC8869984

# Test system: H. pylori ATCC 43504
# TEST SUMMARY: micro-dilution broth method (MIC, MBC)
# Format: cell-based
# REPORTED CONDITIONS: H. pylori ATCC 43504
Listed compounds paired with reported MBC
// note: answer is a bare numeric in µg/mL

Completed entries (count: 3):
- COMPOUND: "Cc1ncc([N+](=O)[O-])n1CCO.Cc1ncc([N+](=O)[O-])n1CCO.O=[N+]([O-])[O-].[Ag+] [[Ag(MTZ)2NO3]]"
  READOUT UNITS: "µg/mL"
  READOUT VALUE: 15.6
- COMPOUND: "O=[N+]([O-])[O-].[Ag+] [AgNO3, Silver nitrate]"
  READOUT UNITS: "µg/mL"
  READOUT VALUE: 15.6
- COMPOUND: "Cc1ncc([N+](=O)[O-])n1CCO.Cc1ncc([N+](=O)[O-])n1CCO.Cc1ncc([N+](=O)[O-])n1CCO.Cc1ncc([N+](=O)[O-])n1CCO.O=S(=O)([O-])[O-].[Ag+].[Ag+] [[Ag(MTZ)2]2SO4]"
  READOUT UNITS: "µg/mL"
  READOUT VALUE: 31.3

// next entry
Request: Field request: MBC | item: O=S(=O)([O-])[O-].[Ag+].[Ag+] [Ag2SO4, silver sulfate]
Result: 15.6
